# Tested on: DLD-1 colon
# experimental_protocol: NCI tumour cell line growth inhibition, 48 h
reported_metric: TGI

Please review the following examples before continuing.
O=C(/C=C/c1ccccc1F)c1ccc(Cl)c(Cl)c1 ... > 62.9 µM
COCN1COCN=C1NC#N ... > 100 µM

Let's switch to this molecule now.
Consider the molecule Cc1cccc(C2SCc3nc4ccccc4n32)c1 (stereo not drawn) and give its measured TGI.
75.9 µM

###

# System: MDA-MB-435
# experimental_protocol: NCI tumour cell line growth inhibition, 48 h
reported_metric: TGI (µM)
Express it in µM; write the number only.

COC(=O)C1=C(O)[C@H](C(=O)OC)C2(O)C(C(=O)OC)[C@H](c3ccc(OC(=O)C(C)c4ccc(CC(C)C)cc4)cc3)C[C@@H]1[C@@H]2C(=O)OC (stereo not given in full) ... 28.2

Under MDA-MB-435: TGI value of COC(=O)c1ccc(C)cc1CC1Cc2ccc(C)cc2C1=O (stereo not given) ?
4.03

Under MDA-MB-435: TGI value of CCCCCCCCCCCCCCCCOP(=O)(O)OCC(N)C(=O)O (stereo not given) ?
39.8

Under MDA-MB-435: TGI value of COC1=CC(=O)CC(C)C12Oc1c(Cl)c(OC)cc(OC)c1C2=O (stereo not given) ?
6.42

###

# Tested on: NCI/ADR-RES ovarian
# experimental_protocol: NCI tumour cell line growth inhibition, 48 h
Measured TGI, listed per entry for reference.

COC(=O)c1ccc(CN2C(=O)C(Cl)=C(Nc3cccc(Cl)c3C)C2=O)cc1 ... > 100 µM
NC1=Nc2cc(Cl)ccc2Sc2nc3ccccc3n21 ... > 100 µM
NC(CSSCC(N)=NCC12CC3CC(CC(C3)C1)C2)=NCC12CC3CC(CC(C3)C1)C2 ... 33.8 µM
COc1ccc(-c2nc(-c3ccc(C)cc3)cn3ccnc23)cc1 ... > 50 µM

Under NCI/ADR-RES ovarian: TGI value of COc1ccc(C/C(=C(\C)c2ccc(OCCN3CCCC3)cc2)c2ccc(OCCN3CCCC3)cc2)cc1 ?
3.71 µM

###

# Test system: RXF 393 renal
# experimental_protocol: NCI tumour cell line growth inhibition, 48 h
reported_metric: TGI

Please review the following examples before continuing.
c1csc(-c2ccsc2-c2cccs2)c1 ... > 100 µM
Cc1cc(S(=O)(=O)Nc2nnc3cnc4ccccc4n23)c(S)cc1Cl ... > 100 µM
CC(O)(P(=O)(O)O)P(=O)(O)OCC(O)CN1CCOCC1 (stereo unspecified) ... > 100 µM

Consider the molecule Cc1cccc(C)c1NC(=O)C1=NC(=S)NC(c2ccccc2)C1c1nc2ccccc2s1 (stereo unspecified) and give its measured TGI.
> 100 µM

Consider the molecule O=C(CSc1nc(-c2ccccc2)c(-c2ccccc2)[nH]1)N/N=C/c1ccc(O)cc1 and give its measured TGI.
61.4 µM

Consider the molecule O=c1[nH]c2ccccc2nc1/C=C(\O)c1ccccc1O and give its measured TGI.
> 100 µM

Consider the molecule COc1c2c(c3ccccc3c1O)C1C=CC2C1 (stereo unspecified) and give its measured TGI.
28.9 µM

Consider the molecule CN(C)c1ccc(/C=C(\NC(=O)c2ccccc2)C2=NC(CCC(=O)O)C(=O)O2)cc1 (stereo unspecified) and give its measured TGI.
> 50 µM

Consider the molecule Cn1ncc2c(Cl)ncnc21 and give its measured TGI.
> 100 µM

Consider the molecule CC(=O)Oc1c(-c2ccccc2)sc2ccccc12 and give its measured TGI.
28.1 µM

Consider the molecule COc1ccc2c3c([nH]c2c1)CCN(CCCC(=O)c1ccc(F)cc1)C3 and give its measured TGI.
28.5 µM

###

Measured TGI, listed per entry for reference.
# System: HOP-92 NSCLC
# experimental_protocol: NCI tumour cell line growth inhibition, 48 h

CCOC(=O)C(=O)CC1=Nc2ccccc2SC(c2cccc(C)c2)C1 (stereo unspecified) ... 32 µM

Consider the compound NC(=O)c1ccccc1[N+](=O)[O-] and give its measured TGI.
> 100 µM

Consider the compound CCCCCCCCCCCCCCCCCCn1cc[n+](C)c1 and give its measured TGI.
2.62 µM

Consider the compound CC1=C(SCCC(=O)OC(C[Se]C2=C(C)C(=O)c3ccccc3C2=O)C(=O)NCCCCCC(=O)OCc2ccccc2)C(=O)c2ccccc2C1=O (stereo unspecified) and give its measured TGI.
7.89 µM

Consider the compound CCCCCCCCCCCC[C@@H](O)[C@H]1CCC([C@H](O)CCCCC(=O)CCCCCCCC2=C[C@H](C)OC2=O)O1 (stereo partly specified) and give its measured TGI.
> 50 µM

Consider the compound ClC/C=C/COC1CCCCO1 (stereo unspecified) and give its measured TGI.
> 100 µM

###

# Tested on: UACC-62 melanoma
# experimental_protocol: NCI tumour cell line growth inhibition, 48 h
Decide using TGI: a value greater than or equal to 20 µM is yes, a smaller one is no.

COc1ccccc1NC(=O)CC(=O)N1N=C(N2c3ccccc3Sc3ccccc32)CC1c1ccccc1 (centres undefined) ... yes
c1ccc(C2OC3(CCC[C@H]4C[C@H]43)O[C@H]2c2ccccc2)cc1 (some centres undefined) ... yes
COCc1c(-c2cc3cc(C)cc(OC)c3s2)c2c(N)ncnn2c1CN1CCNC(=O)C1 ... yes

In plain terms: is recorded TGI at least 20 µM for CC(=O)Oc1c(-c2ccccc2)sc2ccccc12 ?
yes

In plain terms: is recorded TGI at least 20 µM for CC(=O)c1c2c(cc3c1CC1(C3)Cc3cc4c(c(C(C)=O)c3C1)CCC4)CCC2 ?
yes

In plain terms: is recorded TGI at least 20 µM for CC1C(C)N(C(=O)CCl)c2ccccc2N1C(=O)CCl (centres undefined) ?
no

In plain terms: is recorded TGI at least 20 µM for CNC(=O)c1c(NC(=O)c2ccc(C(C)(C)C)cc2)sc2c1CCC(=O)C2 ?
no

In plain terms: is recorded TGI at least 20 µM for CCOC(=O)C(Cc1ccc(OC(=O)OC(C)(C)C)cc1)NC(=O)OC(C)(C)C (centres undefined) ?
yes

In plain terms: is recorded TGI at least 20 µM for COC(=O)C1=C(O)[C@H](C(=O)OC)C2(O)C(C(=O)OC)[C@H](c3ccc(OC(=O)C(C)c4ccc(CC(C)C)cc4)cc3)C[C@@H]1[C@@H]2C(=O)OC (some centres undefined) ?
yes

###

# Tested on: SNB-75 CNS
# experimental_protocol: NCI tumour cell line growth inhibition, 48 h
Measured TGI, listed per entry for reference.
Express it in µM; write the number only.

Please review the following examples before continuing.
NC(CSSCC(N)=NCC12CC3CC(CC(C3)C1)C2)=NCC12CC3CC(CC(C3)C1)C2 ... 45.2
CC1=C(SCCC(=O)OC(C[Se]C2=C(C)C(=O)c3ccccc3C2=O)C(=O)NCCCCCC(=O)OCc2ccccc2)C(=O)c2ccccc2C1=O (stereo not given) ... 23.8
CC(=O)Oc1c(N2CCCCC2)c(C(=O)c2ccccc2)c(O)c2ccn(N(C)C)c12 ... 32.5
O=C(CSc1nc(-c2ccccc2)c(-c2ccccc2)[nH]1)N/N=C/c1ccc(O)cc1 ... 52.7

Let's switch to this compound now.
Consider the compound CCCCCCCCCCCCCCC(O)C[N+](C)(CCO)CCO (stereo not given) and give its measured TGI.
2.85

###

# System: OVCAR-8 ovarian
# experimental_protocol: NCI tumour cell line growth inhibition, 48 h
Measured TGI, listed per entry for reference.

Please review the following examples before continuing.
CC1=C(SCCC(=O)OC(C[Se]C2=C(C)C(=O)c3ccccc3C2=O)C(=O)NCCCCCC(=O)OCc2ccccc2)C(=O)c2ccccc2C1=O (stereo not drawn) ... 15 µM
COc1ccc2c3c([nH]c2c1)CCN(CCCC(=O)c1ccc(F)cc1)C3 ... 29.1 µM
Cc1sc2c(c1C)/C(=N\O)c1cccn1-2 ... > 100 µM
Cc1n[nH]c(=O)n1/N=C\c1ccccc1 ... > 100 µM
COc1ccc(C2C(C#N)=C(S)N(C3OC(COC(C)=O)C(OC(C)=O)C(OC(C)=O)C3OC(C)=O)C(c3ccccc3)=C2C(C)=O)cc1 (stereo not drawn) ... > 100 µM

Consider the compound CC(=O)NC(C)(C)C1CCC(C)=C(c2ccccc2)C1 (stereo not drawn) and give its measured TGI.
> 100 µM

Consider the compound CC(=O)Nc1c(Nc2ccccc2)[nH]c(C)nc1=S and give its measured TGI.
> 100 µM

###

# Test system: U251 CNS
# experimental_protocol: NCI tumour cell line growth inhibition, 48 h
reported_metric: TGI

Please review the following examples before continuing.
Cc1cccc(N2C(=O)C3c4[nH]c5ccccc5c4C4CCC(C(C)(C)C)CC4C3C2=O)c1 (centres undefined) ... 47.8 µM
CC(=O)c1c2c(cc3c1CC1(C3)Cc3cc4c(c(C(C)=O)c3C1)CCC4)CCC2 ... > 100 µM
O=C1C(Cl)=C(N(C(=O)c2ccccc2)C(=O)c2ccccc2)C(=O)c2ccccc21 ... > 100 µM
COc1cccc(CC(C)=C(c2ccc(OCCN3CCCCC3)cc2)c2ccc(OCCN3CCCCC3)cc2)c1 ... 3.7 µM

Let's switch to this molecule now.
Consider the molecule Clc1cccc(NN=Nc2ccc(-c3nc4ccccc4s3)cc2)c1 and give its measured TGI.
> 100 µM
